tested.target: recombinant human KRAS^G12D protein (Homo sapiens, UniProt P01116, G12D)
Sequence (P01116 1-188 isoform P01116-2 G12D): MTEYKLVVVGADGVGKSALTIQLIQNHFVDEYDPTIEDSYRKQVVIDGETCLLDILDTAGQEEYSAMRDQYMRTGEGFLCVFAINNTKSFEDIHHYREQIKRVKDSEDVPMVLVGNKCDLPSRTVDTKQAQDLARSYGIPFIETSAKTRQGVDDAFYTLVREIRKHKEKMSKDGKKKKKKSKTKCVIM
protocol: Temperature-dependent Fluorescence (TdF) KRAS^G12D protein binding assay
condition.context: 6 μM KRAS^G12D Protein, 10 μM compound, Sypro Orange; Kd calculated from fluorescent shift
pKd: −log10 of the molar value.
Would you kindly list pKd for each of these molecules?

Worked cases, pKd given:
* CCc1cccc2cc(O)cc(-c3nc(CC)c4c(N5CC6CCC(C5)N6)nc(OC[C@@]56CCCN5C[C@H](F)C6)nc4c3F)c12 | ≥ 6.30
* C[C@H]1CNCCN1c1nc(OCCN(C)C)c(-c2cccnc2C2CC2)c2nc(-c3ccccc3F)c(F)cc12 | < 5.30
* C#Cc1c(F)ccc2cc(O)cc(-c3nc(OCC)c4c(N5CC6CCC(C5)N6)nc(OC[C@@]56CCCN5C[C@H](F)C6)nc4c3F)c12 | ≥ 6.30

QUERY: Annotate the molecule CN(C)CCOc1cc2nc(-c3ccccc3F)c(F)cc2c(N2C3CCC2CNC3)n1 with its measured pKd.
RESULT: < 5.30

---

tested.target: Ba/F3_KRAS^G12D cells (Homo sapiens, UniProt P01116, G12D, cells depend on it)
Sequence (P01116 whole entry G12D): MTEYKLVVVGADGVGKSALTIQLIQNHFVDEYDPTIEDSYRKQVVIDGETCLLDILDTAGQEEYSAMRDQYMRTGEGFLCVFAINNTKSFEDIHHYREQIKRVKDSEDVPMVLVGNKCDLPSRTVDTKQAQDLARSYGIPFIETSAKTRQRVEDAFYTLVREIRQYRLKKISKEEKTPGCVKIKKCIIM
protocol: Ba/F3 KRAS^G12D cell proliferation assay (cell-titer Glo)
Format: cell-based
condition.context: cell growth inhibition, treated with the compounds for 3 days, read-out: BaF3_KRAS^G12D IC50
Would you kindly list GI50 for each of these molecules?

Below is a list of molecules. For each, state its recorded GI50.
1. CCc1c(F)ccc2cc(O)cc(-c3nc(C)c4c(N5CC6CCC(C5)N6)nc(OC[C@@]56CCCN5C[C@H](F)C6)nc4c3F)c12
2. Fc1ccccc1-c1nc2cc(OCC34CCCN3CCC4)nc(N3CC4CCC(C3)N4)c2cc1F
3. CCc1cccc2cc(O)cc(-c3nc(CC)c4c(N5CC6CCC(C5)N6)nc(OC[C@@]56CCCN5C[C@H](F)C6)nc4c3F)c12
4. C#Cc1c(F)ccc2c(F)c(O)cc(-c3nc(C)c4c(N5CC6CCC(C5)N6)nc(OC[C@@]56CCCN5C[C@H](F)C6)nc4c3F)c12

RESULT:
1: < 500 nM; 2: 500 to 5000 nM; 3: < 500 nM; 4: < 500 nM

---

tested.target: Ba/F3_KRAS^G12D cells (Homo sapiens, UniProt P01116, G12D, cells depend on it)
protocol: Ba/F3 KRAS^G12D cell proliferation assay (cell-titer Glo)
Assay type: cell-based
condition.context: cell growth inhibition, treated with the compounds for 3 days, read-out: BaF3_KRAS^G12D IC50
Would you kindly list GI50 for each of these molecules?

Worked cases, GI50 given:
- C#Cc1c(F)ccc2cc(O)cc(-c3nc(OC(C)C)c4c(N5CCNC(C(F)F)C5)nc(OC[C@@]56CCCN5C[C@H](F)C6)nc4c3F)c12 (stereo partly shown) [Compound 220]: < 500 nM
- CCc1cccc2cc(O)cc(-c3nc(O)c4c(N5CC6CCC(C5)N6)nc(OC[C@@]56CCCN5C[C@H](F)C6)nc4c3F)c12 [Compound 133]: 500 to 5000 nM
- CCc1cccc2cc(O)cc(-c3ncc4c(N5CC6CCC(C5)N6)nc(OC[C@@]56CCCN5C[C@H](F)C6)c(Cl)c4n3)c12 [Compound 61]: 500 to 5000 nM
- Cc1nc(-c2ccc(F)c3nc(N)sc23)c(F)c2nc(OC[C@@]34CCCN3C[C@H](F)C4)nc(N3CC4CCC(C3)N4)c12 [Compound 99]: 500 to 5000 nM

Below is a list of molecules. For each, state its recorded GI50.
1. C#Cc1c(F)ccc2cc(O)cc(-c3nc(OCC)c4c(N5CC6CCC(C5)O6)nc(OC[C@@]56CCCN5C[C@H](F)C6)nc4c3F)c12 [Compound 169]
2. CN1CCC[C@H]1Cn1c(=O)nc(N2CC3CCC(C2)N3)c2cc(F)c(-c3cc(O)cc4ccccc34)nc21 [Compound 39]
3. COc1nc2c(N3CC4CCC(C3)N4)nc(OC[C@@H]3CCCN3C)nc2cc1-c1cc(O)cc2ccccc12 [Compound 91]

RESULT:
1: < 500 nM; 2: > 5000 nM; 3: 500 to 5000 nM

Below is a list of molecules. For each, state its recorded GI50.
1. C#Cc1c(F)ccc2cc(O)cc(-c3nc(OC)c4c(N5CC6CCC(C5)N6)nc(OC[C@@]56CCCN5[C@@H](COC(=O)N(C)C)CC6)nc4c3F)c12 [Compound 177]
2. CCc1cccc2cc(O)cc(-c3cc4c(cn3)c(N3CC5CCC(C3)N5)nc(=O)n4C[C@@H]3CCCN3C)c12 [Compound 88]
3. C#Cc1c(F)ccc2cccc(-c3nc(OC)c4c(N5CC6CCC(C5)N6)nc(OC[C@]56CCCN5[C@@H](COC(=O)N(C)C)CC6)nc4c3F)c12 [Compound 216]
4. O=c1c2nc(OCC34CCCN3CCC4)nc(N3CC4CCC(C3)N4)c2ccn1-c1cccc2ccccc12 [Compound 108]
5. Cc1nc(-c2cc(O)cc3cccc(Cl)c23)c(F)c2nc(OC[C@@]34CCCN3C[C@H](F)C4)nc(N3CC4CCC(C3)N4C)c12 [Compound 90]
6. C#Cc1c(F)ccc2cc(O)cc(-c3nc(Cl)c4c(N5CC6CCC(C5)N6)nc(OC[C@@H]5CCCN5C)nc4c3F)c12 [Compound 159]

RESULT:
["< 500 nM", "> 5000 nM", "< 500 nM", "> 5000 nM", "500 to 5000 nM", "< 500 nM"]

---

Would you kindly list GI50 for each of these compounds?
tested.target: Ba/F3_KRAS^G12D cells (Homo sapiens, UniProt P01116, G12D, cells depend on it)
protocol: Ba/F3 KRAS^G12D cell proliferation assay (cell-titer Glo)
Format: cell-based
condition.context: cell growth inhibition, treated with the compounds for 3 days, read-out: BaF3_KRAS^G12D IC50

- C#Cc1c(F)ccc2cc(O)cc(-c3nc(OCC)c4c(N5CC6CCC(C5)N6)ncnc4c3F)c12: < 500 nM

Below is a list of compounds. For each, state its recorded GI50.
1. CCc1cccc2cc(N)cc(-c3nc(OC)c4c(N5CC6CCC(C5)N6)nc(OC[C@@]56CCCN5C[C@H](F)C6)nc4c3F)c12
2. Fc1cc2c(N3CC4CCC(C3)N4)nc(OCC34CCCN3CCC4)cc2nc1-c1cccc2ccccc12
3. Oc1cc(-c2nc(Cl)c3c(N4CC5CCC(C4)N5)nc(OC[C@@]45CCCN4C[C@H](F)C5)nc3c2Cl)c2c(Cl)cccc2c1
4. CN(C)CCCOc1nc(N2CC3CCC(C2)N3)c2cc(F)c(-c3cccc4cccc(Cl)c34)nc2n1
5. Oc1cc(-c2nc3cc(OCC45CCCN4CCC5)nc(N4CC5CCC(C4)N5)c3cc2Cl)c2c(Cl)cccc2c1

RESULT:
1: < 500 nM; 2: 500 to 5000 nM; 3: < 500 nM; 4: > 5000 nM; 5: > 5000 nM

QUERY: Annotate the compound C#Cc1c(F)ccc2cc(N)cc(-c3nc(Cl)c4c(N5CC6CCC(C5)N6)nc(OC[C@@]56CCCN5C[C@H](F)C6)nc4c3F)c12 with its measured GI50.
RESULT: < 500 nM

---

Would you kindly list GI50 for each of these compounds?
tested.target: Ba/F3_KRAS^G12D cells (Homo sapiens, UniProt P01116, G12D, cells depend on it)
protocol: Ba/F3 KRAS^G12D cell proliferation assay (cell-titer Glo)
Assay type: cell-based
condition.context: cell growth inhibition, treated with the compounds for 3 days, read-out: BaF3_KRAS^G12D IC50

Worked cases, GI50 given:
* C[C@H]1CNCCN1c1nc(OCCN(C)C)c(-c2cccnc2C2CC2)c2nc(-c3cccc4ccccc34)c(F)cc12 [Compound 29] | 0.5 to 5 µM
* C#Cc1c(F)ccc2cc(O)cc(-c3nc(OC)c4c(N5CC6CCC(C5)N6)nc(OCC5(CN(C)C)CC5)nc4c3F)c12 [Compound 182] | < 0.5 µM
* CNC(=O)COc1nc(-c2cc(O)cc3ccccc23)c(F)c2nc(OC[C@@]34CCCN3C[C@H](F)C4)nc(N3CC4CCC(C3)N4)c12 [Compound 145] | 0.5 to 5 µM
* c1ccc2c(-c3ncc4c(N5CCNCC5)nc(OCC56CCCN5CCC6)cc4n3)cccc2c1 [Compound 18] | 0.5 to 5 µM
* Oc1cc(-c2ncc3c(N4CC5CCC(C4)N5)nc(OCC45CCCN4CCC5)cc3n2)c2c(Cl)cccc2c1Cl [Compound 59] | > 5 µM

Below is a list of compounds. For each, state its recorded GI50.
1. CN(C)C1CN(c2nc(-c3cccc4cccc(Cl)c34)c(F)c3nc(N4CCNCC4)ccc23)C1 [Compound 50]
2. C#Cc1c(F)ccc2cc(O)cc(-c3nc(OC(C)C)c4c(N5CC6CCC(C5)N6)nc(OCC5(CN6CCOCC6)CC5)nc4c3F)c12 [Compound 229]
3. Oc1cc(-c2ncc3c(N4CC5CCC(C4)N5)cc(OC[C@@]45CCCN4C[C@H](F)C5)nc3c2F)c2c(Cl)cccc2c1 [Compound 78]
4. C#Cc1c(F)ccc2cc(N)cc(-c3nc(OC(C)C)c4c(N5CC6CCC(C5)N6)nc(OC[C@@H]5C[C@H](F)CN5C)nc4c3F)c12 [Compound 207]
5. CC#Cc1c(F)ccc2cc(O)cc(-c3nc(OC)c4c(N5CC6CCC(C5)N6)nc(OC[C@@]56CCCN5C[C@H](F)C6)nc4c3F)c12 [Compound 146]
6. CCN1CCN(c2nc(OCC34CCCN3CCC4)nc3c(F)c(-c4cc(O)cc5cccc(Cl)c45)ncc23)CC1 [Compound 42]
7. Nc1cccc(F)c1-c1ncc2c(N3CCNCC3)nc(OCC34CCCN3CCC4)cc2n1 [Compound 22]

RESULT:
0.5 to 5 µM
< 0.5 µM
0.5 to 5 µM
< 0.5 µM
< 0.5 µM
0.5 to 5 µM
> 5 µM
